molecular target: Coagulation factor X (Homo sapiens); conditions: at 250 µM
Sequence (P00742 41-179 limits assumed): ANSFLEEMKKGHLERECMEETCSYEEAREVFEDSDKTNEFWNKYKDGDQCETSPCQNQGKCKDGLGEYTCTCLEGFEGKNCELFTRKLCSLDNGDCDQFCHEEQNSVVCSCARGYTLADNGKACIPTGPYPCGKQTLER
Sequence (P00742 235-488 limits assumed): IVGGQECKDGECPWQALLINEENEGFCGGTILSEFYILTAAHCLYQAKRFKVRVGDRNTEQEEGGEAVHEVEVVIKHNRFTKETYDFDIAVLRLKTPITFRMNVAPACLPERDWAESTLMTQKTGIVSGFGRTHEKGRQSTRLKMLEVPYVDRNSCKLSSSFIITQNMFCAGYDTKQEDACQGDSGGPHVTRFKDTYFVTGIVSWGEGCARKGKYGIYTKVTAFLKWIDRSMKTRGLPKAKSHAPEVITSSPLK
Description: Inhibitory activity against Coagulation factor Xa at a concentration of 250 uM
Listing of recorded inhibition by entry.
Quick reminder: number only, in %, skip the unit.

{"COMPOUND": "N=C(N)NC(=O)c1nc(Cl)c(N)nc1N [AMILORIDE]", "inhibition, %": 17}
{"COMPOUND": "C[C@H](NC(=O)[C@@H](CO)NC(=O)OCc1ccccc1)C(=O)NC([C@H]1CC[C@H](CN=C(N)N)CC1)P(=O)(Oc1ccccc1)Oc1ccccc1 (stereo not given in full)", "inhibition, %": 77}
{"COMPOUND": "C[C@H](NC(=O)[C@@H](CO)NC(=O)OCc1ccccc1)C(=O)NC(CCN=C(N)N)P(=O)(Oc1ccccc1)Oc1ccccc1 (stereo not given in full)", "inhibition, %": 6}

// C[C@H](NC(=O)[C@@H](CO)NC(=O)OCc1ccccc1)C(=O)NC(c1ccc(CN=C(N)N)cc1)P(=O)(Oc1ccccc1)Oc1ccccc1 (stereo not given in full) : inhibition value = 44

# inhibition of C[C@H](NC(=O)[C@@H](CO)NC(=O)OCc1ccccc1)C(=O)NC(c1ccc(NC(=N)N)cc1)P(=O)(Oc1ccccc1)Oc1ccccc1 (stereo not given in full) = 56
